pIC50: −log10 of the molar value.
Literature-derived pIC50 for Matrilysin (Homo sapiens) follows.
parameter: pIC50

> print(dat)
                            smilesstructure  inequalitysign  readoutvalue
1  COc1ccc(S(=O)(=O)N2CCCSC(C)(C)[C@@H]2C(=O)NO)cc1               =          7.52
2  CSc1ccc(-n2nnc(-c3ccc(S(=O)(=O)N[C@@H](C(=O)O)C(C)C)cc3)n2)cc1               <          6.00
3  CC1(C)SCCCN(S(=O)(=O)c2ccc(Oc3ccccc3)cc2)[C@H]1C(=O)NO               =          7.80
4  COc1ccc(S(=O)(=O)N2CC(C)(C)CN(S(=O)(=O)c3ccc(OC)cc3)C2C(=O)NO)cc1               =          7.52
5  O=C(NO)[C@H]1C[C@H](N2CCCC2)CN1S(=O)(=O)c1ccc(Oc2ccccc2)cc1               =          6.10

----------
Literature log10 IC50 values, system: Matrilysin (Homo sapiens).
Sequence (P09237 whole entry): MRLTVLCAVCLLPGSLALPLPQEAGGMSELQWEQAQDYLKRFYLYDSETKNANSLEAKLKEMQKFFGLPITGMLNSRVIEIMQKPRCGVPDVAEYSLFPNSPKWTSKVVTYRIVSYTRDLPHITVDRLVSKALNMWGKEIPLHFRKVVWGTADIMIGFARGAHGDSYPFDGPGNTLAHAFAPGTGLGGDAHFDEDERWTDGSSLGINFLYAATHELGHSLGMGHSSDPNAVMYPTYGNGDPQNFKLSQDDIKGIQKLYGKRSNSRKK
parameter: log10 IC50 (log10 of the value in nM)

> print(dat)
                                    molecule                     target  readoutvalue
 1  COc1ccc(S(=O)(=O)N2C[C@@H](NS(C)(=O)=O)C[C@@H]2C(=O)NO)cc1  Matrilysin (Homo sapiens)          3.43
 2  COc1ccc(S(=O)(=O)N2CC(=O)N(O)C(=O)[C@H]2C(C)C)cc1  Matrilysin (Homo sapiens)          4.59
 3  COc1ccc(S(=O)(=O)N2C[C@@H](NCCc3ccccc3)C[C@@H]2C(=O)NO)cc1  Matrilysin (Homo sapiens)          3.15
 4  O=C1NC(=O)[C@](CNC(=O)c2cc3cc(C(F)(F)F)ccc3o2)(C2CC2)N1  Matrilysin (Homo sapiens)          5.00
 5  COCCOc1ccc(S(=O)(=O)N2CC(NOC)C[C@@H]2C(=O)NO)cc1 (stereo partly drawn)  Matrilysin (Homo sapiens)          3.83
 6  COc1ccc(S(=O)(=O)N2CCN(C(=S)NCc3ccccc3)CC2C(=O)NO)cc1 (stereo not drawn)  Matrilysin (Homo sapiens)          2.60
 7  CCCCOc1ccc(S(=O)(=O)N2C/C(=N\OC)C[C@@H]2C(=O)NO)cc1  Matrilysin (Homo sapiens)          1.95
 8  O=C1N[C@@H](CS)C(=O)N(CC2CCCCC2)[C@H]1CC1CCCCC1  Matrilysin (Homo sapiens)          2.77
 9  CC(C)[C@H](NS(=O)(=O)c1ccc(-c2ccc(Cl)cc2)cc1)P(=O)(O)O  Matrilysin (Homo sapiens)          3.23
10  CNC(=O)[C@H](Cc1ccccc1)NC(=O)[C@H](CCCc1ccccc1)CC(=O)NO  Matrilysin (Homo sapiens)          4.00
11  COc1ccc(-c2ccc(S(=O)(=O)N[C@@H](C(C)C)P(=O)(O)O)cc2)cc1  Matrilysin (Homo sapiens)          2.66
12  COc1ccc(S(=O)(=O)N2[C@@H](c3ccccc3)CCSC(C)(C)[C@@H]2C(=O)NO)cc1  Matrilysin (Homo sapiens)          2.04
13  COc1ccc(S(=O)(=O)N2CCCCCSC(C)(C)[C@@H]2C(=O)NO)cc1  Matrilysin (Homo sapiens)          1.48
14  CCCCCc1ccc(S(=O)(=O)N2C[C@@H](N3CCCCC3)C[C@@H]2C(=O)NO)cc1  Matrilysin (Homo sapiens)          3.99
15  CCCCCCN(C)C(=O)N1CCN(S(=O)(=O)c2ccc(OC)cc2)C(C(=O)NO)C1 (stereo not drawn)  Matrilysin (Homo sapiens)          3.51
16  Cc1ccc(-c2ccc(S(=O)(=O)N[C@@H](C(C)C)P(=O)(O)O)cc2)cc1  Matrilysin (Homo sapiens)          2.18
17  CCCOc1ccc(S(=O)(=O)N2C[C@@H](N3CCCCC3)C[C@@H]2C(=O)NO)cc1  Matrilysin (Homo sapiens)          2.79
